ALP values for the molecules below.
- Organism: Rattus norvegicus
- assay-summary: Open TG-GATES - Regimen: Single
- Type: toxicity, organism-based, Sprague-Dawley
- Set-up: regimen Single, gender Male, age 6 weeks
- assay-setup: in vivo, po, 100 mg/kg, 9 h, tissue Plasma, route gavage, dose level High
Numeric only. Scale: IU/L

CN(C)CCN(Cc1cccs1)c1ccccn1 1538
CN(C)CCCN1c2ccccc2CCc2ccc(Cl)cc21 1702
CC1=C(/C=C/C(C)=C/C=C/C(C)=C/CO)C(C)(C)CCC1 1745.2

Okay, now this molecule:
[in] Which ALP reading was recorded for the molecule "CN(C)CCCN1c2ccccc2CCc2ccccc21" ?
[out] 1131.2

====

- Species on record: Rattus norvegicus
- assay-summary: Open TG-GATES - Regimen: Single
- Assay type: toxicity, organism-based, Sprague-Dawley
- Design: regimen Single, gender Male, age 6 weeks
- assay-setup: in vivo, po, 10 mg/kg, 6 h, tissue Blood, route gavage, dose level Low
quantity-name: Ret (%)
Give your result in % as a bare value.

molecule	Ret [%]
CC(C)OC(=O)C(C)(C)Oc1ccc(C(=O)c2ccc(Cl)cc2)cc1 [FENOFIBRATE]	11.1
CN(C)CCN(Cc1cccs1)c1ccccn1	7.6
CN(C)CCCN1c2ccccc2CCc2ccccc21 [IMIPRAMINE]	8.3

[in] Name the reported Ret value associated with the molecule CC1=C(/C=C/C(C)=C/C=C/C(C)=C/CO)C(C)(C)CCC1 [RETINOL]
[out] 8.1

[in] Record: CN(C)CCCN1c2ccccc2CCc2ccc(Cl)cc21 [CLOMIPRAMINE]
[out] 7.9

====

Measured ALP of individual entries
- Organism: Rattus norvegicus
- assay-summary: Open TG-GATES - Regimen: Single
- Type: toxicity, organism-based, Sprague-Dawley
- Design: regimen Single, gender Male, age 6 weeks
- assay-setup: in vivo, po, 30 mg/kg, 6 h, tissue Plasma, route gavage, dose level Middle
Form entry: value (IU/L) — number only.

[in] I'd like to know its ALP. The molecule in question is "CN(C)CCCN1c2ccccc2CCc2ccc(Cl)cc21"
[out] 1672.6

[in] "CN(C)CCCN1c2ccccc2CCc2ccccc21" , same question.
[out] 1270.6

[in] Same for "CN(C)CCN(Cc1cccs1)c1ccccn1"
[out] 1536.2

[in] And the next one, "CC1=C(/C=C/C(C)=C/C=C/C(C)=C/CO)C(C)(C)CCC1" ?
[out] 1586.8

====

- Species: Rattus norvegicus
- assay-summary: Open TG-GATES - Regimen: Single
- Assay type: toxicity, organism-based, Sprague-Dawley
- Design: regimen Single, gender Male, age 6 weeks
- assay-setup: in vivo, po, 300 mg/kg, 3 h, tissue Plasma, route gavage, dose level Middle
quantity-name: Ca

compound	quantity-name	reading
NC(N)=Nc1nc(CSCCC(N)=NS(N)(=O)=O)cs1	Ca	10.6 mg/dL
COc1ccc2[nH]c([S+]([O-])Cc3ncc(C)c(OC)c3C)nc2c1 (centres undefined)	Ca	10.6 mg/dL
COC1=CC(=O)C[C@@H](C)[C@]12Oc1c(Cl)c(OC)cc(OC)c1C2=O	Ca	11 mg/dL

[in] Please report the recorded Ca for CCOC(=O)CCC(=O)O[C@H]1[C@H](O[C@@H]2[C@@H](C)[C@H](O[C@H]3C[C@@](C)(OC)[C@@H](O)[C@H](C)O3)[C@@H](C)C(=O)O[C@H](CC)[C@@](C)(O)[C@H](O)[C@@H](C)C(=O)[C@H](C)C[C@@]2(C)O)O[C@H](C)C[C@@H]1N(C)C [ERYTHROMYCIN ETHYLSUCCINATE] .
[out] 10.5 mg/dL
